Target: Chymase (Homo sapiens, UniProt P23946)
Sequence (P23946 whole entry): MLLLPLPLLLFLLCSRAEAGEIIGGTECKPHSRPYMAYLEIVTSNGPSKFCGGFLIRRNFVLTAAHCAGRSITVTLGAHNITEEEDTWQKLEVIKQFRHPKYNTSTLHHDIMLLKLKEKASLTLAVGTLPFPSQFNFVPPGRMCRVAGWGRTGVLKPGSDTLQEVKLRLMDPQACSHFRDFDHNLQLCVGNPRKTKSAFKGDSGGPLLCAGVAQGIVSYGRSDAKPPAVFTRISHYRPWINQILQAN
Assay: In vitro inhibitory activity against human chymase
pIC50: −log10 of the molar value.
observed property: pIC50

item smiles: COC(=O)c1ccc(NS(=O)(=O)c2sc3ccc(C)cc3c2C)c(S(C)(=O)=O)c1
numeric result: 6.49

(1) COC(=O)c1ccc(NS(=O)(=O)c2sc3ccc(Cl)cc3c2C)c(S(C)(=O)=O)c1C
(2) CCCS(=O)(=O)c1ccc(NS(=O)(=O)c2sc3ccc(Cl)cc3c2C)cc1
Q: Determine, for 1 and 2 , which has the greater value of pIC50. Answer by quoting the chosen item's label.
Ans: 1
(1: 6.23, 2: 4.97)

(A) COCc1ccc(NS(=O)(=O)c2sc3ccc(F)cc3c2C)c(S(C)(=O)=O)c1
(B) Cc1c(S(=O)(=O)Nc2ccc(CO)cc2S(C)(=O)=O)sc2ccc(F)cc12
Q: Please indicate which entry, A or B , has the lower recorded pIC50 value. Lab log: write the label of the selected item as the result.
Ans: B

* * *

Assay: In vitro inhibitory activity against human elastase
pIC50: −log10 of the molar value.
The reader will find reported pIC50 values listed item by item below.

Please review the following examples before continuing.
item smiles: COC(=O)c1ccc(NS(=O)(=O)c2sc3ccc(F)cc3c2C)c(S(C)(=O)=O)c1
pIC50: < 5.00

item smiles: CC(=O)c1ccc(NS(=O)(=O)c2sc3ccc(F)cc3c2C)c(S(C)(=O)=O)c1
pIC50: < 5.00

Note: attention shifts to another entry.
Q: I would be grateful if you could share the reported pIC50 for COC(=O)c1ccc(NS(=O)(=O)c2sc3ccc(Cl)cc3c2C)c(S(C)(=O)=O)c1 .
Ans: < 5.00

* * *

Target: Chymase (Homo sapiens)
Assay: In vitro inhibitory activity against human chymase; NI Indicates no inhibition at 10 uM
observed property: IC50

item smiles: Cc1c(S(=O)(=O)Nc2ccc([N+](=O)[O-])cc2)sc2ccc(Cl)cc12
observed property: IC50
result: No inhibition

item smiles: CCCSc1ccc(NS(=O)(=O)c2sc3ccc(Cl)cc3c2C)cc1
observed property: IC50
result: No inhibition

item smiles: COC(=O)c1ccc(NS(=O)(=O)c2sc3ccc(Cl)cc3c2C)c(C(=O)OC)c1
observed property: IC50
result: No inhibition

item smiles: Cc1c(S(=O)(=O)Nc2ccc(C#N)cc2)sc2ccc(Cl)cc12
observed property: IC50
result: No inhibition

* * *

Each entry below carries its reported pIC50.
Target: Chymase (Homo sapiens)
Assay: In vitro inhibitory activity against human chymase
pIC50: −log10 of the molar value.

In the examples that follow, each entry is paired with its recorded pIC50.
item smiles: Cc1c(S(=O)(=O)Nc2ccc(C(N)=O)cc2S(C)(=O)=O)sc2ccc(F)cc12
observed property: pIC50
result: < 6.00
//
item smiles: Cc1c(S(=O)(=O)Nc2ccc(C=O)cc2S(C)(=O)=O)sc2ccc(F)cc12
observed property: pIC50
result: < 6.00

Now look at this one.
Q: Form field: reported pIC50 of Cc1c(S(=O)(=O)Nc2ccc(C(=O)O)cc2S(C)(=O)=O)sc2ccc(F)cc12
Ans: < 6.00
